- system tested: T1, minipig PDGF (minipig)
- T1 construct: Printed only as minipig PDGF; also called Minpig PDGF
- T1 sequence (P20034 whole entry, looked up): SLGSPAVAEPAVIAE
- assay summary: SPR, Fab fragment; assay format for PDGF not described
reported property: Kd (pM)
Express the result in pM but write the number alone.

Challenge: Fill blank: measured Kd of the binder bispecific anti-VEGF/anti-PDGF-B Fab fragment 28.02 (Fab, V domains shown) VH: DLQLVESGGGLVKPGGSLRLSCAADGWWFGYTDMSWVRQAPGKGLEWVGSISYKGGHKYLNTKFIGRFTISRDDDTNTLYLQMNSLRAEDTAVYYCARDDGYFDTWGQGTLVTVSS VL: AIHMYQEPSSLSASVGDRVTITCHGSYWLSNYLAWYQQKPGKAPKLLIYDGKEREHGVPSRFSGSGSHEDYTLTISSLQPEDFATYYCQQYRYHPYTFGHGTKVEIKR is ____.
Response given: 400
